- Experiment Description: First-in-human clinical study: plasma and whole blood PK of INX-315 (oral QD, ASD tablet)
- Format: in vivo
- Conditions: human, plasma, oral, 200 mg, plasma, 200 mg QD, Day 1, Cohort 2; read-out: Cmax, geometric mean
Endpoint Label: Cmax (ng/mL)
Report the value in ng/mL with no unit label.

Req: I am curious: what Cmax value has been reported for "NS(=O)(=O)c1ccc(Nc2ncc3cc4n(c3n2)C2(CCCCC2)C(=O)NN4)cc1" ?
Resp: 590

---

- Experiment Description: First-in-human clinical study: plasma and whole blood PK of INX-315 (oral QD, ASD tablet)
- Assay type: in vivo
- Conditions: human, plasma, oral, 100 mg, plasma, 100 mg QD, Day 1, individual patients; read-out: AUClast
Endpoint Label: AUC(0-t) (µg·h/mL)
Report the value in µg·h/mL with no unit label.

Req: I am curious: what AUC(0-t) value has been reported for "NS(=O)(=O)c1ccc(Nc2ncc3cc4n(c3n2)C2(CCCCC2)C(=O)NN4)cc1" ?
Resp: 3.49

---

- Experiment Description: First-in-human clinical study: plasma and whole blood PK of INX-315 (oral QD, ASD tablet)
- Assay type: in vivo
- Conditions: human, plasma, oral, 200 mg, plasma, 200 mg QD, Day 1, Cohort 2; read-out: AUClast, geometric mean
Endpoint Label: AUC(0-t) (ng·h/mL)
Report the value in ng·h/mL with no unit label.

Req: I am curious: what AUC(0-t) value has been reported for "NS(=O)(=O)c1ccc(Nc2ncc3cc4n(c3n2)C2(CCCCC2)C(=O)NN4)cc1" ?
Resp: 8940

---

- Experiment Description: First-in-human clinical study: plasma and whole blood PK of INX-315 (oral QD, ASD tablet)
- Format: in vivo
- Conditions: human, plasma, po, 100 mg, plasma, 100 mg QD cohort, Day 1, median; read-out: t1/2, Median (converted)
Endpoint Label: half-life (h)
Report the value in h with no unit label.

Req: I am curious: what half-life value has been reported for NS(=O)(=O)c1ccc(Nc2ncc3cc4n(c3n2)C2(CCCCC2)C(=O)NN4)cc1 [INX-315] ?
Resp: 15.6

---

- Experiment Description: First-in-human clinical study: plasma and whole blood PK of INX-315 (oral QD, ASD tablet)
- Format: in vivo
- Conditions: human, whole blood, oral, 100 mg, whole blood, 100 mg QD, Day 15 observed, mean of first two patients; read-out: Cmax
Endpoint Label: Cmax (ng/mL)
Report the value in ng/mL with no unit label.

Req: I am curious: what Cmax value has been reported for "NS(=O)(=O)c1ccc(Nc2ncc3cc4n(c3n2)C2(CCCCC2)C(=O)NN4)cc1" ?
Resp: 5440

---

- Experiment Description: First-in-human clinical study: plasma and whole blood PK of INX-315 (oral QD, ASD tablet)
- Assay type: in vivo
- Conditions: human, plasma, po, 100 mg, plasma, 100 mg QD cohort, Day 15, median; read-out: Cmax, Median
Endpoint Label: Cmax
Express your answer as a number followed by its unit.

Req: I am curious: what Cmax value has been reported for "NS(=O)(=O)c1ccc(Nc2ncc3cc4n(c3n2)C2(CCCCC2)C(=O)NN4)cc1" ?
Resp: 217 ng/mL

---

- Experiment Description: First-in-human clinical study: plasma and whole blood PK of INX-315 (oral QD, ASD tablet)
- Format: in vivo
- Conditions: human, plasma, oral, 100 mg, plasma, 100 mg QD, first dose level (Table 5); read-out: C24 hr
Endpoint Label: concentration at 24 h
Express your answer as a number followed by its unit.

Req: I am curious: what concentration at 24 h value has been reported for "NS(=O)(=O)c1ccc(Nc2ncc3cc4n(c3n2)C2(CCCCC2)C(=O)NN4)cc1" ?
Resp: 177 ng/mL

---

- Experiment Description: First-in-human clinical study: plasma and whole blood PK of INX-315 (oral QD, ASD tablet)
- Type: in vivo
- Conditions: human, plasma, oral, 200 mg, plasma, 200 mg QD, Day 15, individual subjects; read-out: t1/2 (converted)
Endpoint Label: half-life (h)
Report the value in h with no unit label.

Req: I am curious: what half-life value has been reported for "NS(=O)(=O)c1ccc(Nc2ncc3cc4n(c3n2)C2(CCCCC2)C(=O)NN4)cc1" ?
Resp: 8.36

---

- Experiment Description: First-in-human clinical study: plasma and whole blood PK of INX-315 (oral QD, ASD tablet)
- Format: in vivo
- Conditions: human, plasma, oral, 200 mg, plasma, 200 mg QD, Day 1, individual subjects; read-out: Tmax
Endpoint Label: Tmax (h)
Report the value in h with no unit label.

Req: I am curious: what Tmax value has been reported for NS(=O)(=O)c1ccc(Nc2ncc3cc4n(c3n2)C2(CCCCC2)C(=O)NN4)cc1 [INX-315] ?
Resp: 8

---

- Experiment Description: First-in-human clinical study: plasma and whole blood PK of INX-315 (oral QD, ASD tablet)
- Type: in vivo
- Conditions: human, plasma, oral, 100 mg, plasma, 100 mg QD, Day 15 (Example 10); read-out: Cmax
Endpoint Label: Cmax (ng/mL)
Report the value in ng/mL with no unit label.

Req: I am curious: what Cmax value has been reported for NS(=O)(=O)c1ccc(Nc2ncc3cc4n(c3n2)C2(CCCCC2)C(=O)NN4)cc1 [INX-315] ?
Resp: 211

---

- Experiment Description: First-in-human clinical study: plasma and whole blood PK of INX-315 (oral QD, ASD tablet)
- Assay type: in vivo
- Conditions: human, plasma, oral, 200 mg, plasma, 200 mg QD, Day 15, individual subjects; read-out: Cmax
Endpoint Label: Cmax

Req: I am curious: what Cmax value has been reported for "NS(=O)(=O)c1ccc(Nc2ncc3cc4n(c3n2)C2(CCCCC2)C(=O)NN4)cc1" ?
Resp: 779 ng/mL

---

- Experiment Description: First-in-human clinical study: plasma and whole blood PK of INX-315 (oral QD, ASD tablet)
- Type: in vivo
- Conditions: human, whole blood, oral, 100 mg, whole blood, 100 mg QD, Day 15 observed, mean of first two patients; read-out: AUC
Endpoint Label: AUC (µg·h/mL)
Report the value in µg·h/mL with no unit label.

Req: I am curious: what AUC value has been reported for NS(=O)(=O)c1ccc(Nc2ncc3cc4n(c3n2)C2(CCCCC2)C(=O)NN4)cc1 [INX-315] ?
Resp: 116

---

- Experiment Description: First-in-human clinical study: plasma and whole blood PK of INX-315 (oral QD, ASD tablet)
- Format: in vivo
- Conditions: human, plasma, po, 100 mg, plasma, 100 mg QD cohort, Day 1, individual subjects; read-out: t1/2 (converted)
Endpoint Label: half-life
Express your answer as a number followed by its unit.

Req: I am curious: what half-life value has been reported for "NS(=O)(=O)c1ccc(Nc2ncc3cc4n(c3n2)C2(CCCCC2)C(=O)NN4)cc1" ?
Resp: 11.5 h

---

- Experiment Description: Aqueous solubility of INX-315
- Assay type: physicochemical
- Conditions: water, H2O; read-out: Total Drug Solubility
Endpoint Label: solubility (µg/mL)
Report the value in µg/mL with no unit label.

Req: I am curious: what solubility value has been reported for "NS(=O)(=O)c1ccc(Nc2ncc3cc4n(c3n2)C2(CCCCC2)C(=O)NN4)cc1" ?
Resp: 61

---

- Experiment Description: First-in-human clinical study: plasma and whole blood PK of INX-315 (oral QD, ASD tablet)
- Format: in vivo
- Conditions: human, plasma, oral, 300 mg, plasma, 300 mg QD cohort, Day 15, individual subjects; read-out: AUClast
Endpoint Label: AUC(0-t) (ng·h/mL)
Report the value in ng·h/mL with no unit label.

Req: I am curious: what AUC(0-t) value has been reported for "NS(=O)(=O)c1ccc(Nc2ncc3cc4n(c3n2)C2(CCCCC2)C(=O)NN4)cc1" ?
Resp: 5590

---

- Experiment Description: First-in-human clinical study: plasma and whole blood PK of INX-315 (oral QD, ASD tablet)
- Assay type: in vivo
- Conditions: human, plasma and whole blood, oral, 100 mg, preliminary data of the expanded cohort 1, 100 mg QD; read-out: t1/2 (converted)
- Procedure: All INX-315 tablets were taken at approximately the same time(s) each day. Samples will also be collected pre-dose on Cycle 1 Days 2, 8, 16, and Day 22, and pre-dose on Day 1 of each subsequent cycle. Standard non-compartmental PK parameters were estimated. […] PK parameters will be summarized descriptively by dosing cohort. […] Dose proportionality will be assessed for AUC and Cmax using a power model. […] Patients were upgraded to the 200 mg QD dose level and PK/PD plasma parameters were measured (FIG. 18A). […]
Endpoint Label: half-life

Req: I am curious: what half-life value has been reported for "NS(=O)(=O)c1ccc(Nc2ncc3cc4n(c3n2)C2(CCCCC2)C(=O)NN4)cc1" ?
Resp: ≥ 12 h
